- experimental_details: molar heat capacity at constant pressure
- test_settings: 353.2 K; 101.33 kPa; Liquid; Small sample (50 mg) DSC
Binary call on molar heat capacity at constant pressure with cut-off 400 J/K/mol: strictly below means Yes, and equality or higher means No.

Examples with answers:
# compound, class_assignment
data = [
    ("CCn1cc[n+](C)c1.F[B-](F)(F)F [1-ethyl-3-methylimidazolium tetrafluoroborate]", "Yes"),
    ("CCOS(=O)(=O)[O-].CCn1cc[n+](C)c1 [1-ethyl-3-methylimidazolium ethyl sulfate]", "No"),
    ("CCn1cc[n+](C)c1.COCCOCCOS(=O)(=O)[O-] [1-ethyl-3-methylimidazolium 2-(2-methoxyethoxy) ethylsulfate]", "No"),
]

query: Consider CCn1cc[n+](C)c1.N#CN=C=[N-] [1-ethyl-3-methylimidazolium dicyanamide] . Does its molar heat capacity at constant pressure lie strictly below 400 J/K/mol?
result: Yes
